Test system: CFTR^ΔF508/ΔF508 epithelia
Experiment: Short-circuit current (Isc) response to increasing cAMP agonist concentrations, Ussing chambers, ΔF508 epithelia
Format: cell-based, pig
Settings: read-out: EC50 (change in Isc with increasing 8-CPT-cAMP)
Reported endpoint: EC50 (µM)
Numbers only, in µM.

EC50 in this record for "Nc1ncnc2c1nc(Sc1ccc(Cl)cc1)n2[C@@H]1O[C@@H]2COP(=O)(O)O[C@H]2[C@H]1O" : 65.2
